System: LNCap
Test: Cytotoxicity (MTT) LNCap
Assay type: cell-based, human
Conditions: lncap cells

{"compound structure string": "C[n+]1ccc(-c2c3nc(c(-c4cc[n+](C)cc4)c4ccc([n-]4)c(-c4cc[n+](C)cc4)c4nc(c(-c5cc[n+](C)cc5)c5ccc2[n-]5)C=C4)C=C3)cc1.[Cl-].[Cl-].[Cl-].[Cl-].[Pt+2]", "measurement target": "LNCap", "IC50": "42.2 µM"}

###

Target: UniProtKB O14746
Sequence (O14746 whole entry): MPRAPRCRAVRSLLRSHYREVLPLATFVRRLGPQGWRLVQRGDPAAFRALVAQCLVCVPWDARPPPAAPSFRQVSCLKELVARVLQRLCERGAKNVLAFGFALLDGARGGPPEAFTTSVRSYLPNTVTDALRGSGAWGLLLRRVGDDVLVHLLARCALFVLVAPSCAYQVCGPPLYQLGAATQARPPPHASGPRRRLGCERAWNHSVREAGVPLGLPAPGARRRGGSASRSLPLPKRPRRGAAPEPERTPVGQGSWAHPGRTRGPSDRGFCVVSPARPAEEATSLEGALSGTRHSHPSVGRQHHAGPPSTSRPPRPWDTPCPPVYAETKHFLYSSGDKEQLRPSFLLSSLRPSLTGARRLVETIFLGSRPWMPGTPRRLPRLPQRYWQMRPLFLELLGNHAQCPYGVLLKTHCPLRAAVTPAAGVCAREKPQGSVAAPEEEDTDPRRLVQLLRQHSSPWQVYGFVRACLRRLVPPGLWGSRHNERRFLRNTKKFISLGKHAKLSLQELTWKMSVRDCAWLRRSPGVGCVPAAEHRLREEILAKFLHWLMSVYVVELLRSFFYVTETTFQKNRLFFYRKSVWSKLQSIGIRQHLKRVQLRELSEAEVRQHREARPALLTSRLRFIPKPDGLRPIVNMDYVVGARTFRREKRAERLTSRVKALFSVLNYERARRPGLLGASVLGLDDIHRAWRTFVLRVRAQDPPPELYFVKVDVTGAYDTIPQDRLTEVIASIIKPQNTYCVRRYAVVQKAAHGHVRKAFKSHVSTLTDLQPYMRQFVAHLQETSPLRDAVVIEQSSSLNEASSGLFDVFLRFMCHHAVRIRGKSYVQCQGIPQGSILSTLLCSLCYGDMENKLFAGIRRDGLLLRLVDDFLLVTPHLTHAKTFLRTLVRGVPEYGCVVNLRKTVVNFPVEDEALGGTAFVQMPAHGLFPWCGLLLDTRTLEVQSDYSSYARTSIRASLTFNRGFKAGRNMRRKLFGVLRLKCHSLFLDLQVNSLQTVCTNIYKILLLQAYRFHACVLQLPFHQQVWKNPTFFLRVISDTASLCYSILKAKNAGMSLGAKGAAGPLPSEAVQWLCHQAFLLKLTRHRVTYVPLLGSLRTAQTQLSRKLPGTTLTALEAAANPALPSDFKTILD
Test: Telomerase inhibition, primer extension assay in HeLa cell extract
Format: biochemical
Details: Telomerase Inhibition

{"compound structure string": "C[n+]1ccc(-c2c3nc(c(-c4cc[n+](C)cc4)c4ccc([nH]4)c(-c4cc[n+](C)cc4)c4nc(c(-c5cc[n+](C)cc5)c5ccc2[nH]5)C=C4)C=C3)cc1", "measurement target": "UniProtKB O14746", "measurement unit": "µM", "IC50": 15}
